System: Plasmodium falciparum
Assay: GSK_TCMDC: Inhibition of Plasmodium falciparum 3D7 in whole red blood cells, using parasite LDH activity as an index of growth. Test compounds present at 2uM
Assay type: functional
measured-attribute: Inhibition (%)
I only need the number, in %, no unit after it.

Reference set, count: 5
> print(dat)
                                   molecule  units.symbol  reported.measurement
1  COc1ccc(CNCC2CCC(CNCCc3ccccc3)CC2)cc1Cl (centres undefined)             %                   100
2  COc1cc2c(cc1O)[C@@H]1[C@H](O)[C@@H](O)C=C3CCN(C2)[C@H]31 [PSEUDOLYCORINE]             %                    90
3  Cc1cc(N2CCCC2)nc(Nc2ccc(NC(=O)C(C)Oc3ccccc3)cc2)n1 (centres undefined)             %                   100
4  COc1ccccc1CCC(C)(C)NC(=O)CC(CCc1ccccc1)Nc1ccc(C#N)c2ccccc12 (centres undefined)             %                    94
5  CC(=O)Nc1ccc(C(=O)Nc2cccc(-c3ccc(-c4nc5cccc(C)c5[nH]4)cc3)c2)cn1             %                   100

Request: # input molecule: O=C(NCCCCN1CCC(c2ccc(-c3ccco3)cc2)CC1)c1ccc(NC(=O)c2ccc(Cl)cc2)cc1 ; wanted: its Inhibition
Response: 100
